assayRemarks: recombinant UMI read abundance after kanamycin selection (control-corrected) (log10(CPM+1)); higher = more efficient recombination; extreme values may be limits of the assay; sequences stand for … in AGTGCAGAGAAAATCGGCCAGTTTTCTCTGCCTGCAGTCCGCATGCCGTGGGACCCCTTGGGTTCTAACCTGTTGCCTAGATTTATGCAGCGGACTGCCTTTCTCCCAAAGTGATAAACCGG…AGGTTGGTTTCACT; site = the 11-nt donor;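 further: IS621 bridge recombinase in Escherichia coli cells against a fixed T5 target plasmid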
Rule: recombinant UMI read abundance (log10) under 0.01 gives FALSE, otherwise TRUE.

seq="ATCTGTACATGGACCGGTTTTCCCGGTAATCCGTATTTGAC (site ATCTTTACTGT)" group=FALSE
seq="ATTCGAACATGGACCGGTTTTCCCGGTAATCCGTATTTGTT (site ATTCGAACTAA)" group=TRUE
seq="TTCTATACATGGACCGGTTTTCCCGGTAATCCGTATTTGAC (site CTCTATACTGT)" group=FALSE
seq="CTCGAATCATGGACCGGTTTTCCCGGTAATCCGTATTTGCA (site CTCGAATCTTG)" group=TRUE
seq="GCGTGCCCATGGACCGGTTTTCCCGGTAATCCGTATTTGAT (site GCATGCCCTAT)" group=TRUE
seq="CGAACTACATGGACCGGTTTTCCCGGTAATCCGTATTTGAG (site CGAACTACTCT)" group=TRUE
seq="TAGCGAGCATGGACCGGTTTTCCCGGTAATCCGTATTTGAA (site TAGCAAGCTTT)" group=TRUE
seq="CTAGTAACATGGACCGGTTTTCCCGGTAATCCGTATTTGAC (site CTAGTAGCTGT)" group=TRUE
seq="TCTACCGCATGGACCGGTTTTCCCGGTAATCCGTATTTGCG (site TCCACCGCTCG)" group=FALSE
seq="CGGAAGCCATGGACCGGTTTTCCCGGTAATCCGTATTTGTT (site CGGAAACCTAA)" group=FALSE
seq="TGTCCTGCATGGACCGGTTTTCCCGGTAATCCGTATTTGTT (site TGTCCTGCTAA)" group=TRUE
seq="GGTCAAGCATGGACCGGTTTTCCCGGTAATCCGTATTTGGC (site GGTCAAGCTGC)" group=TRUE
seq="TCTAGTGCATGGACCGGTTTTCCCGGTAATCCGTATTTGGT (site GCTAGTGCTAC)" group=FALSE
seq="GACCTCACATGGACCGGTTTTCCCGGTAATCCGTATTTGTA (site GACCTCACTTA)" group=TRUE
seq="AGCTCGGCATGGACCGGTTTTCCCGGTAATCCGTATTTGGG (site AGCTCGGCTCC)" group=FALSE
seq="CGATCATCATGGACCGGTTTTCCCGGTAATCCGTATTTGAT (site CGATCATCTAC)" group=TRUE
seq="GGCTCTACATGGACCGGTTTTCCCGGTAATCCGTATTTGGT (site GGCTCTACTAC)" group=FALSE
seq="TGTTCACCATGGACCGGTTTTCCCGGTAATCCGTATTTGAC (site TGTTCACCTGT)" group=FALSE
seq="TAAAGTACATGGACCGGTTTTCCCGGTAATCCGTATTTGTA (site TAAAGTACTTA)" group=TRUE
seq="TGGTCATCATGGACCGGTTTTCCCGGTAATCCGTATTTGAG (site TGGTCATCTCT)" group=TRUE
seq="CTAAGGCCATGGACCGGTTTTCCCGGTAATCCGTATTTGAC (site GTAAGGCCTGT)" group=FALSE
seq="TAAAGTACATGGACCGGTTTTCCCGGTAATCCGTATTTGTA (site TAAAGTCCTTA)" group=FALSE
seq="GTTCGACCATGGACCGGTTTTCCCGGTAATCCGTATTTGTG (site GTTCGACCTCA)" group=TRUE
seq="TCATGATCATGGACCGGTTTTCCCGGTAATCCGTATTTGGA (site TCATGATCTTC)" group=TRUE
seq="CTGCTAGCATGGACCGGTTTTCCCGGTAATCCGTATTTGCT (site CTGCTAACTAG)" group=FALSE
seq="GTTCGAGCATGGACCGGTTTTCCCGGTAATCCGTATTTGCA (site GTTCGAGCTTC)" group=TRUE
seq="GCAACGCCATGGACCGGTTTTCCCGGTAATCCGTATTTGTA (site GCAACGCCTTA)" group=TRUE
seq="CGAACATCATGGACCGGTTTTCCCGGTAATCCGTATTTGCT (site CGAACATCTAG)" group=TRUE
seq="TACTTGACATGGACCGGTTTTCCCGGTAATCCGTATTTGTT (site TACTTGACTAT)" group=FALSE
seq="GAGTTCACATGGACCGGTTTTCCCGGTAATCCGTATTTGAT (site GAGCTCACTAT)" group=TRUE
seq="TAATATCCATGGACCGGTTTTCCCGGTAATCCGTATTTGTC (site TAATATCCTGA)" group=TRUE
seq="CCTGCTACATGGACCGGTTTTCCCGGTAATCCGTATTTGCG (site CCTGCTACTCG)" group=TRUE
seq="GATAGGACATGGACCGGTTTTCCCGGTAATCCGTATTTGAC (site GATTGGACTGT)" group=TRUE
seq="GATGATTCATGGACCGGTTTTCCCGGTAATCCGTATTTGTT (site GAAGATTCTAA)" group=TRUE
seq="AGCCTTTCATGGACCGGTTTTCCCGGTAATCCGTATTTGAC (site AGCCTGTCTGT)" group=FALSE
seq="GAAAACCCATGGACCGGTTTTCCCGGTAATCCGTATTTGAT (site GAAAACCCTAT)" group=FALSE
